Experiment Notes: Study BP40387 Part 1 (SAD) pharmacokinetics, healthy participants
Type: in vivo, human
Experimental Context: both sexes, human, plasma; single oral 30 mg, fasted, geo mean; read-out: t1/2 (converted)

Test Smiles	half-life, h
Cn1nnnc1Cn1nnc2c(N3CC[C@H](O)C3)nc(C(C)(C)C)nc21	6.97

====

Experiment Notes: clinical
Experimental Context: both, human, plasma, oral, 20 mg
Outcome Measure: Cmax (µg/mL)

Test Smiles	Outcome Measure	Obs Value
Cn1nnnc1Cn1nnc2c(N3CC[C@H](O)C3)nc(C(C)(C)C)nc21	Cmax	0.289

====

Experiment Notes: Study BP40387 Part 1 (SAD) pharmacokinetics, healthy participants
Format: in vivo, human
Experimental Context: both sexes, human, plasma; single oral 300 mg, fasted, geo mean

Test Smiles	Unit	AUC
Cn1nnnc1Cn1nnc2c(N3CC[C@H](O)C3)nc(C(C)(C)C)nc21	ng·h/mL	31400

====

Experiment Notes: Study BP40387 Part 1 (SAD) pharmacokinetics, healthy participants
Format: in vivo, human
Experimental Context: both sexes, human, plasma, po, 300 mg, single oral 300 mg, fasted, median; read-out: Tmax

Molecule	Tmax
Cn1nnnc1Cn1nnc2c(N3CC[C@H](O)C3)nc(C(C)(C)C)nc21 [RO6868847]	3 h

====

Experiment Notes: clinical
Experimental Context: both, human, plasma, oral, 60 mg

Compound	Tmax (h)
Cn1nnnc1Cn1nnc2c(N3CC[C@H](O)C3)nc(C(C)(C)C)nc21 [RO6868847]	2

====

System: human CB2 (Homo sapiens, UniProt P34972)
Construct: expressed in transfected cells; host or cells: CHO cells
Sequence (P34972 whole entry): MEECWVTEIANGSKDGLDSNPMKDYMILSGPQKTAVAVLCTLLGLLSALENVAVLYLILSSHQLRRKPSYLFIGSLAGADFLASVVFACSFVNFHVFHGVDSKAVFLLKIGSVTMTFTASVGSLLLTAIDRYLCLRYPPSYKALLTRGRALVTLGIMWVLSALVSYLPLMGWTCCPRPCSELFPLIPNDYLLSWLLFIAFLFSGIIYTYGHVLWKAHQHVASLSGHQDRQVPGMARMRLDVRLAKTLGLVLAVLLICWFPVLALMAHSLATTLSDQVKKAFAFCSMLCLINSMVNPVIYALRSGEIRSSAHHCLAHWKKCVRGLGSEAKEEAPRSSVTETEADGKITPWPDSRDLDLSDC
Experiment Notes: Radioligand binding to CB2, U698M cells expressing endogenous CB2
pIC50: −log10 of the molar value.

Test Smiles	pIC50
Cn1nnnc1Cn1nnc2c(N3CC[C@H](O)C3)nc(C(C)(C)C)nc21	7.04

====

System: cynomolgus monkey CB2 (Macaca fascicularis, UniProt G7NVV5)
Sequence (G7NVV5 1-360): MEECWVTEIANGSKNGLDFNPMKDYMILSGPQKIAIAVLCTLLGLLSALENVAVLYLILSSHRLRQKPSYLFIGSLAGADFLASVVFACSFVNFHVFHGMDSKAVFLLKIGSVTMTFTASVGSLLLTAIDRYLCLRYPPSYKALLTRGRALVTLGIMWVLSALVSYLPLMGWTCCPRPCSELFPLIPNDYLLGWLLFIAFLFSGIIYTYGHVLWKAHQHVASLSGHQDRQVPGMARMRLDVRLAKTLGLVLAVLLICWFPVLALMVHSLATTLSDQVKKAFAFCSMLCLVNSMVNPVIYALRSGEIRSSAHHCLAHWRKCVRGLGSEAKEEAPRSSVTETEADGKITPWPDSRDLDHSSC
Experiment Notes: Radioligand binding to CB2, CHO cells
Outcome Measure: IC50 (nM)

Test Smiles	Outcome Measure	Obs Value
Cn1nnnc1Cn1nnc2c(N3CC[C@H](O)C3)nc(C(C)(C)C)nc21	IC50	103

====

Experiment Notes: clinical
Experimental Context: both, human, plasma, oral, 200 mg

Compound	Cmax [ng/mL]
Cn1nnnc1Cn1nnc2c(N3CC[C@H](O)C3)nc(C(C)(C)C)nc21 [RO6868847]	2380

====

Experiment Notes: Study BP40387 Part 1 (SAD) pharmacokinetics, healthy participants
Type: in vivo, human
Experimental Context: both sexes, human, plasma, oral, single dose 100 mg and 300 mg, fasted; read-out: Individual Tmax

Compound	Tmax
Cn1nnnc1Cn1nnc2c(N3CC[C@H](O)C3)nc(C(C)(C)C)nc21 [RO6868847]	1 to 6 h

====

System: human CB2 (Homo sapiens, UniProt P34972)
Construct: expressed in transfected cells; host or cells: CHO cells
Experiment Notes: Forskolin-stimulated cAMP inhibition in stably transfected CHO cells
Type: cell-based
Experimental Context: IC50 ± SE (nM), second row printed 'Human', CHO cells

Test Smiles	System	IC50
Cn1nnnc1Cn1nnc2c(N3CC[C@H](O)C3)nc(C(C)(C)C)nc21	human CB2 (Homo sapiens, UniProt P34972)	2.6 nM

====

Experiment Notes: Study BP40387 Part 1 (SAD) pharmacokinetics, healthy participants
Assay type: in vivo, human
Experimental Context: both sexes, human, plasma, oral, Study BP40387, fasted conditions, across doses; read-out: median Tmax
Outcome Measure: Tmax

Test Smiles	Obs Value
Cn1nnnc1Cn1nnc2c(N3CC[C@H](O)C3)nc(C(C)(C)C)nc21	1 to 4 h

====

Experiment Notes: Study BP40387 Part 1 (SAD) pharmacokinetics, healthy participants
Type: in vivo, human
Experimental Context: both sexes, human, plasma, po, 10 mg, single oral 10 mg, fasted, median; read-out: Tmax
Outcome Measure: Tmax (h)

Test Smiles	Obs Value
Cn1nnnc1Cn1nnc2c(N3CC[C@H](O)C3)nc(C(C)(C)C)nc21	1.75

====

System: CB2 receptor on B-cells (Homo sapiens)
Construct: B cells show a low but robust surface expression of CB2; endogenous in cells; host or cells: B cells in human whole blood (healthy participants, diabetic patients)
Sequence (P34972 whole entry): as the sequence (P34972 whole entry) above
Experiment Notes: In vitro target engagement: CB2 surface expression on peripheral B cells in whole blood (flow cytometry)
Type: cell-based
Experimental Context: mean IC50 (TE), Healthy participants, 9 donors; converted
pIC50: −log10 of the molar value.

Test Smiles	pIC50
Cn1nnnc1Cn1nnc2c(N3CC[C@H](O)C3)nc(C(C)(C)C)nc21	7.02

====

Experiment Notes: clinical
Experimental Context: both, human, plasma, oral, 20 mg

Test Smiles	Unit	Tmax
Cn1nnnc1Cn1nnc2c(N3CC[C@H](O)C3)nc(C(C)(C)C)nc21	h	1.06

====

Tested on: LPS-induced G-CSF, IFNγ, IL1β and TNFα levels in whole blood
Experiment Notes: In vitro LPS whole blood challenge assay
Format: cell-based, human
Experimental Context: Homo sapiens, HV; 6/8; read-out: IC50 (IFNγ)/μM
Outcome Measure: IC50 (µM)

Test Smiles	Obs Value
Cn1nnnc1Cn1nnc2c(N3CC[C@H](O)C3)nc(C(C)(C)C)nc21	10.9

====

System: human CB2 (Homo sapiens, UniProt P34972)
Construct: expressed in transfected cells; host or cells: CHO cells
Experiment Notes: Radioligand binding to CB2, CHO cells expressing recombinant CB2

Compound	Unit	IC50
Cn1nnnc1Cn1nnc2c(N3CC[C@H](O)C3)nc(C(C)(C)C)nc21 [RO6868847]	nM	117

====

Experiment Notes: clinical
Experimental Context: both, human, plasma, oral, 20 mg

Test Smiles	half-life [h]
Cn1nnnc1Cn1nnc2c(N3CC[C@H](O)C3)nc(C(C)(C)C)nc21	15

====

System: human CB2 (Homo sapiens, UniProt P34972)
Construct: expressed in transfected cells; host or cells: CHO cells
Experiment Notes: Radioligand binding to CB2, CHO cells expressing recombinant CB2
pKi: −log10 of the molar value.
Outcome Measure: pKi

Test Smiles	Outcome Measure	Obs Value
Cn1nnnc1Cn1nnc2c(N3CC[C@H](O)C3)nc(C(C)(C)C)nc21	pKi	7.29
